# experimentalProtocol: Hepatotoxicity in human Fa2N-4 cells
# Assay type: toxicity, cell-based
# experimentalSetup: read-out: LD50 (the source's name)

{"smilesEntry": "CN1CCN(C)/C(=N/c2ccc([N+](=O)[O-])cc2C(=O)Nc2ccccc2)C1", "CC50": "> 250 µM"}

====

# experimentalProtocol: Plasma concentration in C57BL/6 mouse at 5 mg/kg, ip administered as single dose measured after 120 mins by LC/MS analysis based RACE assay
# Format: ADME, organism-based
# Design: dose 5 mg/kg, route intraperitoneal
readoutLabel: concentration at 2 h (nM)

{"smilesEntry": "CN1CCN(C)/C(=N/c2ccc([N+](=O)[O-])cc2C(=O)Nc2ccccc2)C1", "measuredValue": 290}
